test: yeast display, Sf9 membrane polyspecificity reagent, FACS + sequencing; frameworks hold sequencing errors
measured.attribute: polyreactivity (PSR sort gate)

macromolecule.sequence | measured.attribute | assay.result
QVQLVESGGGLVQAGGSLRLSCAASGSTFQYYTMGWYRQAPGKERELVAAITRSGGRTYYADSVKGRFTISRDNAKNTVYLQMNSLKPEDTAVYYCAALDSRYSGDDYDSWGQGTQVTVSS | polyreactivity (PSR sort gate) | high polyreactivity
QVQLVESGGGLVQAGGSLRLSCAASGRTFRSNAMGWDRQAPGKEREFVAAISSGGSTKYADSVKGRFTISRDNAKNTVYLQMNSLKPEDTAVYYCAAVSHSRYWGQGTQVTVSS | polyreactivity (PSR sort gate) | high polyreactivity

###

assay: yeast display, Sf9 membrane polyspecificity reagent, FACS + sequencing; frameworks hold sequencing errors
measured.attribute: polyreactivity (PSR sort gate)

Illustrative cases are given below, each with its answer.
macromolecule.sequence | measured.attribute | assay.result
QVQLVESGGGLVQAGGSLRLSCAASGSTFATYAMGWYRQAPGKERELVAVITRGGRTYYADSVKGRFTISRDNAKNTVYLQMNSLKPEDTAVYYCAAKAYTYYARIGFDYCGQGTQVTVSS | polyreactivity (PSR sort gate) | high polyreactivity
QVQLVESGGGLVQAGGSLRLSCAASGSTFVGYAMGWYRQAPGKERELVAAISRSGGRTYYADSVKGRFTISRDNAKNTVYLQMNSLKPEDTAVYYCYPYYIASTFDYWGQGTQVTVSS | polyreactivity (PSR sort gate) | high polyreactivity
QVQLVESGGGLDQAGGSLRLSCAASGSIFGYYAMGWYRQAPGKERELVAAISWSDGSTYYADSVKGRFTISRDNAKNTVYLQMNSLKPEDTAVYSCAARFTPYITSDDGHYDYWGQGTEVTVSS | polyreactivity (PSR sort gate) | low polyreactivity
QVQLVESGGGLVQAGGSLRLSCAASGRTLSGNAMGWYRQAPGKERELVASISTSTDGTYYADSVKGRFTISRDNAKNTVYLQMNSLKPEDTAVYYCTTTTYHWYYYRWEIFDYWGQGTQVTVSS | polyreactivity (PSR sort gate) | low polyreactivity

Looking for the measured polyreactivity (PSR sort gate) of QVQLVESGGGLVQAGGSLRLSCAASGNTLTYNVMGWYRQGPGKERELVAAISGRGGRTYYADSVKGRFTISRDNAKNTVYLQMNSLKPEATAVYDCATRDRAGYYYWGQGTQVTVSS , can you help?
high polyreactivity

###

assay: yeast display, Sf9 membrane polyspecificity reagent, FACS + sequencing; frameworks hold sequencing errors
measured.attribute: polyreactivity (PSR sort gate)

macromolecule.sequence | polyreactivity (PSR sort gate)
QVQLVESGGGLVQAGGSLRLSCAASGSTLVKYAMGWYRQAPGKERELVAAISWSGGRTYYADSVKGRFTISRDNAKNTVYLQMNSLKPEDTAVYYCNAEFRGRPPSFAIKYDYWGQGTQVTVSS | high polyreactivity
QVQLVESGGGLVQAGGSLRLSCAASGSTFYYNAMGWYRQAPGKERELVAAITSSGGRTYYADSVKGRFTISRDNAKNTVYLQMNSLKPEDTAVYYCAKREASSRWPYDYWGQGTQVTVSS | low polyreactivity
QVQLQESGGGLVKAGGSLRLSCAASGNISPRDAMGWYRQAPGEERDLVASNAYSAITYYADGVKGRYTISRDNAKNTVYLQMNSLKPEDTVVYYCAVYQFTYPVFPAYWGQGTQVTVSS | low polyreactivity
QVQLVESGGGLVQAGGSLRLSCAASGRTFDVYAMAWYRQAPGKERELVATISWRGTSTYYADSVKGRFTISRDNAKNTVYLQMNSLKPADTAVYYCAKDPQPDLYGSWGQGTQVTVSS | high polyreactivity

Looking for the measured polyreactivity (PSR sort gate) of QVQLVESGGGLVQAGGSLRLSCAASGSIFAAYTMGWYRQAPGKERELVAAISVSTVSTYYADSVKGRFTISRDNAKNTVYLLMNSLKPEDTAVYYCNAVATDSYPEKDEHDSWGQGTQVTVSS , can you help?
low polyreactivity

All figures here come from the nanobody polyreactivity screen of Harvey et al. (2022).
